Provide the recorded Vss for the entries that follow.
- TEST_NAME: Pharmacokinetics of JHG components in control rats after intragastric administration of JHGs (plasma, Orbitrap Fusion MS)
- Assay type: in vivo, Sprague Dawley (SD) rats
- STATED_CONDITIONS: JHGs medium dose 11.41 g/kg/d
Answers are plain numbers, in L.

Reference set, count: 3
CC1=C2CC3C(CC(=O)C4CC(O)CCC43C)C2CCC12OC1CC(C)CNC1C2C (stereo not shown) | 3.98
CC1CCC2N(C1)CC1C3CC4C(CC(O)C5CC(O)CCC54C)C3CCC1C2(C)O (stereo not shown) | 61.2
O=c1cc(-c2ccc(O)cc2)oc2cc(OC3OC(CO)C(O)C(O)C3O)cc(O)c12 (stereo not shown) [Apigenin-7-glucoside] | 5.33

Turning to the following compound.
Quickly give me recorded Vss for CC1CCC2N(C1)CC1C3CC4C(CC(=O)C5CC(O)CCC54C)C3CCC1C2(C)O (stereo not shown)
40.68

---

Record form. Attribute: MRT inf. Fill in for each entry.
- TEST_NAME: Pharmacokinetics of JHG components in pulmonary fibrosis (PF) model rats after intragastric administration of JHGs (plasma, Orbitrap Fusion MS)
- Format: in vivo, Sprague Dawley (SD) rats
- STATED_CONDITIONS: male, Sprague-Dawley, rat, plasma, po, 5.7 g/kg/day; PF model rats, JHGs low dose 5.70 g/kg/d; read-out: MRT(0-∞)
Answers are plain numbers, in h.

For orientation, consider the following solved cases.
COc1ccc(C(C)=O)c(O)c1 [Paeonol] | 33.8
COc1ccc(-c2cc(=O)c3c(OC)c(OC)c(OC)c(OC)c3o2)cc1OC [Nobiletin] | 23.2

For CC1=C2CC3C(CC(=O)C4CC(O)CCC43C)C2CCC12OC1CC(C)CNC1C2C (stereo not drawn) [Peimisine] , write its MRT inf.
11.8

---

- TEST_NAME: Pharmacokinetics of JHG components in control rats after intragastric administration of JHGs (plasma, Orbitrap Fusion MS)
- Assay type: in vivo, Sprague Dawley (SD) rats
- STATED_CONDITIONS: male, Sprague Dawley, rat, plasma, po, 11.41 g/kg/day, JHGs medium dose 11.41 g/kg/d
Label Criterion met when half-life is strictly below 8 h; otherwise label Criterion not met.

Record excerpt, results attached:
COc1ccc(-c2cc(=O)c3c(OC)c(OC)c(OC)c(OC)c3o2)cc1OC | Criterion not met
C[C@@H]1O[C@@H](O[C@@H]2[C@@H](O)[C@H](OCCc3ccc(O)c(O)c3)O[C@H](COC(=O)/C=C/c3ccc(O)c(O)c3)[C@H]2O)[C@H](O)[C@H](O)[C@H]1O [Isoacteoside] | Criterion not met
O=c1cc(-c2ccc(O)c(O)c2)oc2cc(O[C@@H]3O[C@H](CO)[C@@H](O)[C@H](O)[C@H]3O)cc(O)c12 [Cynaroside] | Criterion met

Strictly below 8 h: is that where half-life of CC1=C2CC3C(CC(=O)C4CC(O)CCC43C)C2CCC12OC1CC(C)CNC1C2C (stereo not drawn) sits?
Criterion not met

---

Exercise: state measured Tmax for each of the compounds provided.
- TEST_NAME: Pharmacokinetics of JHG components in control rats after intragastric administration of JHGs (plasma, Orbitrap Fusion MS)
- Format: in vivo, Sprague Dawley (SD) rats
- STATED_CONDITIONS: male, Sprague Dawley, rat, plasma, po, 5.7 g/kg/day, JHGs low dose 5.70 g/kg/d, read-out: Tmax
Answers are plain numbers, in h.

Recorded results for 2 compounds are shown here.
CC1=C2CC3C(CC(=O)C4CC(O)CCC43C)C2CCC12OC1CC(C)CNC1C2C (stereo not drawn) | 4
COc1cc(O)c2c(c1)oc(=O)c1c3cc(O)c(O)cc3oc21 | 2

Quickly give me recorded Tmax for O=c1cc(-c2ccc(O)c(O)c2)oc2cc(O[C@@H]3O[C@H](CO)[C@@H](O)[C@H](O)[C@H]3O)cc(O)c12 [Cynaroside]
6
